FYI, the data here is from paper PMC4072508.

- systemName: Bcl-xL, Q07817
- Sequence (Q07817 1-209): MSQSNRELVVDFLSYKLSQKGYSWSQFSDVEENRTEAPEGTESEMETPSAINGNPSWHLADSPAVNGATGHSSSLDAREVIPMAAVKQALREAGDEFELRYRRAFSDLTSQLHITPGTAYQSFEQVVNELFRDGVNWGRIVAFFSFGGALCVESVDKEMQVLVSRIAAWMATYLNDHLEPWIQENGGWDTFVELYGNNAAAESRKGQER
- assayNotes: peptide SPOT array, c-Myc-tagged receptor at 1 uM or 100 nM, anti-c-Myc-Cy3
The label depends only on SPOT signal as a fraction of Bim BH3's signal on the same receptor and array: Y if it is at least 0.1, N if it is smaller.

stdin: Reported SPOT signal as a fraction of Bim BH3's signal on the same receptor and array at or above 0.1? GHDATEDARTILELARYFLKHGPKKI [XXXX]
stdout: Y

stdin: Reported SPOT signal as a fraction of Bim BH3's signal on the same receptor and array at or above 0.1? ATKRETAATFDKKVAKEFGFQNNGFS [NPLOC4]
stdout: Y

stdin: Reported SPOT signal as a fraction of Bim BH3's signal on the same receptor and array at or above 0.1? VLSRIEAGRSLKSVADEFGISKSTFY [TIGD7_3eA]
stdout: Y
